Reference for the values: PubChem BioAssay AID1486

test name: parental Ba/F3 cell viability inhibition, counter-screen for JAK2V617F inhibitor project, murine pro-B, CellTiter-Glo luminescence (AID 1486);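 also: 0% = DMSO wells and 100% = JAK Inhibitor I control wells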
details: CellTiter-Glo ATP luminescence, at 5.6 µM, stronger effect = higher value
The campaign covered roughly 220,000 compounds. About 2,400 (1.1%) were called active. This excerpt belongs to a sample that is enriched for actives.
assay endpoint: inhibition (%)
Write the value in % as a bare number.

QUERY: What value of inhibition has been recorded for this entry: `Cc1ccccc1CS(=O)(=O)CC1(O)CCN(C(=O)c2cccc(C(F)(F)F)c2)CC1`
RESULT: -1.41

QUERY: What value of inhibition has been recorded for this entry: `CCCn1c(SCC(=O)Nc2ccc(C)c(S(=O)(=O)N3CCOCC3)c2)n[nH]c1=O`
RESULT: 4.59

QUERY: What value of inhibition has been recorded for this entry: `C[C@@H](C(=O)N1CCNCC1)n1cc(CCC(=O)O)nn1`
RESULT: -3.7

QUERY: What value of inhibition has been recorded for this entry: `NS(=O)(=O)c1ccc(NC(=O)COC(=O)c2ccc(Cl)nc2)cc1`
RESULT: 4.09

QUERY: What value of inhibition has been recorded for this entry: `CCN1/C(=C\c2ccc3ccccc3[n+]2CC)Sc2cc(C)ccc21`
RESULT: 88.7

Further cases:
QUERY: What value of inhibition has been recorded for this entry: COc1ccc(C2C=C(c3ccc(Br)cc3)Nc3nc(NS(C)(=O)=O)nn32)cc1 (configuration not stated)
RESULT: -0.92

QUERY: What value of inhibition has been recorded for this entry: `COC(=O)CCNC(=O)c1ccc2[nH]c(C)c(C)c2c1`
RESULT: 3.29
